# credit: ChEMBL document CHEMBL1127078

- System: Escherichia coli
- ASSAY: Tested for minimum inhibitory concentration against Escherichia coli NIHJ
- Format: functional
- ASSAY SETUP: Escherichia coli; read-out: MIC
EXPERIMENTAL ENDPOINT: MIC

> print(dat)
                                   compound  experimental.endpoint  recorded.value
1  C[C@H]1CN(c2c(F)cc3c(=O)c(C(=O)O)cn(C4CC4F)c3c2F)CCN1 (stereo in doubt; 33)                    MIC    ≤ 0.05 µg/mL

Request: Report MIC, nothing else, for this compound: O=C(O)c1cn(C2CC2F)c2cc(N3CCNCC3)c(F)cc2c1=O (stereo in doubt; 24)
Response: ≤ 0.05 µg/mL

Request: State its MIC for this compound: CN1CCN(c2c(F)cc3c(=O)c(C(=O)O)cn(C4CC4F)c3c2F)CC1 (stereo in doubt; 31)
Response: ≤ 0.05 µg/mL

Request: Query MIC for C[C@@H]1CN(c2c(F)cc3c(=O)c(C(=O)O)cn(C4CC4F)c3c2F)CCN1 (stereo in doubt; 34)
Response: ≤ 0.05 µg/mL

Request: Consider the compound CN1CCN(c2nc3c(cc2F)c(=O)c(C(=O)O)cn3C2CC2F)CC1 (stereo in doubt; 37) . State its measured MIC.
Response: ≤ 0.05 µg/mL

Request: Look up and report measured MIC for this entry: O=C(O)c1cn(C2CC2F)c2c(F)c(N3CCNCC3)c(F)cc2c1=O (stereo in doubt; 29)
Response: 0.1 µg/mL

====

Entries and their measured MIC follow.
- Tested on: Staphylococcus aureus
- ASSAY: Tested for minimum inhibitory concentration against Staphylococcus aureus 209P
- Format: functional

// solved cases for MIC follow
> print(dat)
                                   compound  experimental.endpoint  recorded.value
1  O=C(O)c1cn(C2CC2F)c2c(F)c(N3CCNCC3)c(F)cc2c1=O (stereo in doubt; 28)                    MIC        0.1 mg/L
2  CN1CCN(c2c(F)cc3c(=O)c(C(=O)O)cn(C4CC4F)c3c2F)CC1 (stereo in doubt; 30)                    MIC        0.1 mg/L
3  CN1CCN(c2c(F)cc3c(=O)c(C(=O)O)cn(C4CC4F)c3c2F)CC1 (stereo in doubt; 31)                    MIC       1.56 mg/L
4  CN1CCN(c2cc3c(cc2F)c(=O)c(C(=O)O)cn3C2CC2F)CC1 (stereo in doubt; 26)                    MIC        0.1 mg/L
5  O=C(O)c1cn(C2CC2F)c2c(F)c(N3CCNCC3)c(F)cc2c1=O (stereo in doubt; 29)                    MIC       1.56 mg/L

Request: Annotate the compound CN1CCN(c2cc3c(cc2F)c(=O)c(C(=O)O)cn3C2CC2F)CC1 (stereo in doubt; 27) with its measured MIC.
Response: 0.78 mg/L

Request: // fetch MIC given entry C[C@H]1CN(c2c(F)cc3c(=O)c(C(=O)O)cn(C4CC4F)c3c2F)CCN1 (stereo in doubt; 33)
Response: 1.56 mg/L

Request: In one line, give reported MIC of the entry CN1CCN(c2nc3c(cc2F)c(=O)c(C(=O)O)cn3C2CC2F)CC1 (stereo in doubt; 36) .
Response: 0.39 mg/L

Request: Fill in reported MIC for this entry: CN1CCN(c2nc3c(cc2F)c(=O)c(C(=O)O)cn3C2CC2F)CC1 (stereo in doubt; 37)
Response: 1.56 mg/L

Request: Tell me MIC reported for C[C@@H]1CN(c2c(F)cc3c(=O)c(C(=O)O)cn(C4CC4F)c3c2F)CCN1 (stereo in doubt; 35)
Response: 1.56 mg/L

Request: Output MIC of O=C(O)c1cn(C2CC2F)c2cc(N3CCNCC3)c(F)cc2c1=O (stereo in doubt; 25)
Response: 0.78 mg/L

Request: Please give the documented MIC of C[C@H]1CN(c2c(F)cc3c(=O)c(C(=O)O)cn(C4CC4F)c3c2F)CCN1 (stereo in doubt; 32)
Response: 0.1 mg/L

Request: Supply recorded MIC for C[C@@H]1CN(c2c(F)cc3c(=O)c(C(=O)O)cn(C4CC4F)c3c2F)CCN1 (stereo in doubt; 34) here.
Response: 0.1 mg/L

Request: Tell me MIC reported for O=C(O)c1cn(C2CC2F)c2cc(N3CCNCC3)c(F)cc2c1=O (stereo in doubt; 24)
Response: 0.1 mg/L
